# system.name: T1, Cynomolgus CD3εδ Fc heterodimer (Cy CD3ε Fc / CD3δ Fc-HIS) (cynomolgus, UniProt Q95LI8 22-100)
# T1 chain 1: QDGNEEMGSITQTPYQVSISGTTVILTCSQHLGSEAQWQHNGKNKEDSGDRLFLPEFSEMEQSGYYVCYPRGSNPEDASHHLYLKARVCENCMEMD
# T1 chain 2: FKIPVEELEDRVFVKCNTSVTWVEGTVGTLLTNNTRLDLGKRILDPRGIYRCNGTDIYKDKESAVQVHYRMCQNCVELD
# method: BLI (Octet), IgG on AHC sensor, pH 6.0
experimental.readout: koff (s⁻¹)

* SAD10319_P01_A01 (ADI-48619) (antibody, V domains shown, IgG; also called Ab229) VH: QVQLVQSGAEVKKPGASVKVSCKASGYTFASYAMHWVRQAPGQRLEWMGWINPDTGNTVYSQKFQGRVTITRDTSASTAYMELSSLRSEDTAVYYCARDAYHHYFYDVWGQGTLVTVSS VL: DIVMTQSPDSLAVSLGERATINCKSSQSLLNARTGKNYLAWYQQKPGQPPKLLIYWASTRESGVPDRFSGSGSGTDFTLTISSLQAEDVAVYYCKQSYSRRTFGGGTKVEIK | 0.0328
* SAD10320_P04_D12 (ADI-57392) (antibody, V domains shown, IgG; also called Ab118) VH: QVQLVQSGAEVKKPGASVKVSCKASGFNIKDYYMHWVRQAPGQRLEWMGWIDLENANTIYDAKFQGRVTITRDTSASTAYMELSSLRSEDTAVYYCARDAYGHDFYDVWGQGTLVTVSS VL: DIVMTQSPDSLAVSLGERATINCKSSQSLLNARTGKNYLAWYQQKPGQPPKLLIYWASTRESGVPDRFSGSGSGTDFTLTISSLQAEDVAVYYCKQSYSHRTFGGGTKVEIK | 0.00259
* SAD10319_P02_D05 (ADI-57316) (antibody, V domains shown, IgG; also called Ab258) VH: QVQLVQSGAEVKKPGASVKVSCKASGYTFNDYAMHWVRQAPGQRLAWMGWIDAGTGNTYYSQKFQGRVTITRDTSASTAYMELSSLRSEDTAVYYCARDAHGHYFYDVWGQGTLVTVSS VL: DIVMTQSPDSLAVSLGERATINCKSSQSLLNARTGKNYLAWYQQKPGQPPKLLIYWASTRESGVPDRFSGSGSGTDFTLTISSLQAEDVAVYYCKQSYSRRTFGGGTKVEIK | 0.00296
* SAD10320_P03_C08 (ADI-57376) (antibody, V domains shown, IgG; also called Ab94) VH: QVQLVQSGAEVKKPGASVKVSCEASGFNIKDYYMHWVRQAPGQTLAWMGWIDLENANTIYDAKFQGRVTITRDTSASTAYMELSSLRSEDTAVYYCARDAYGHVFYDVWGQGTLVTVSS VL: DIVMTQSPDSLAVSLGERATINCKSSQSLLNARTGKNYLAWYQQKPGQPPKLLIYWASTRESGVPDRFSGSGSGTDFTLTISSLQAEDVAVYYCKQSYLHRTFGGGTKVEIK | 0.0152
* SAD10319_P02_H05 (ADI-57319) (antibody, V domains shown, IgG; also called Ab7) VH: QVQLVQSGAEVKKPGASVKVSCKASGYTFTQYSMHWVRQAPGQRLEWMGWINAGTGDTVYSQKFQGRVTITRDTSASTAYMELSSLRSEDTAVYYCARDHHGRYFYDVWGQGTLVTVSS VL: DIVMTQSPDSLAVSLGERATINCKSSQSLFNARTGKNYLAWYQQKPGQPPKLLIYWASTRESGVPDRFSGSGSGTDFTLTISSLQAEDVAVYYCKQSYSRRTFGGGTKVEIK | 0.019

Reference for the values: patent US20220380463A1
